# Assayed Target: recombinant full length LRRK2 protein (LRRK2 Ser935 phosphorylation) (Homo sapiens, UniProt Q5S007)
# Construct: A BacMam virus expressing full length recombinant LRRK2 was purchased from Invitrogen; host or cells: SH-SY5Y human neuroblastoma cells transduced with BacMam LRRK2 virus
# Sequence (Q5S007 whole entry): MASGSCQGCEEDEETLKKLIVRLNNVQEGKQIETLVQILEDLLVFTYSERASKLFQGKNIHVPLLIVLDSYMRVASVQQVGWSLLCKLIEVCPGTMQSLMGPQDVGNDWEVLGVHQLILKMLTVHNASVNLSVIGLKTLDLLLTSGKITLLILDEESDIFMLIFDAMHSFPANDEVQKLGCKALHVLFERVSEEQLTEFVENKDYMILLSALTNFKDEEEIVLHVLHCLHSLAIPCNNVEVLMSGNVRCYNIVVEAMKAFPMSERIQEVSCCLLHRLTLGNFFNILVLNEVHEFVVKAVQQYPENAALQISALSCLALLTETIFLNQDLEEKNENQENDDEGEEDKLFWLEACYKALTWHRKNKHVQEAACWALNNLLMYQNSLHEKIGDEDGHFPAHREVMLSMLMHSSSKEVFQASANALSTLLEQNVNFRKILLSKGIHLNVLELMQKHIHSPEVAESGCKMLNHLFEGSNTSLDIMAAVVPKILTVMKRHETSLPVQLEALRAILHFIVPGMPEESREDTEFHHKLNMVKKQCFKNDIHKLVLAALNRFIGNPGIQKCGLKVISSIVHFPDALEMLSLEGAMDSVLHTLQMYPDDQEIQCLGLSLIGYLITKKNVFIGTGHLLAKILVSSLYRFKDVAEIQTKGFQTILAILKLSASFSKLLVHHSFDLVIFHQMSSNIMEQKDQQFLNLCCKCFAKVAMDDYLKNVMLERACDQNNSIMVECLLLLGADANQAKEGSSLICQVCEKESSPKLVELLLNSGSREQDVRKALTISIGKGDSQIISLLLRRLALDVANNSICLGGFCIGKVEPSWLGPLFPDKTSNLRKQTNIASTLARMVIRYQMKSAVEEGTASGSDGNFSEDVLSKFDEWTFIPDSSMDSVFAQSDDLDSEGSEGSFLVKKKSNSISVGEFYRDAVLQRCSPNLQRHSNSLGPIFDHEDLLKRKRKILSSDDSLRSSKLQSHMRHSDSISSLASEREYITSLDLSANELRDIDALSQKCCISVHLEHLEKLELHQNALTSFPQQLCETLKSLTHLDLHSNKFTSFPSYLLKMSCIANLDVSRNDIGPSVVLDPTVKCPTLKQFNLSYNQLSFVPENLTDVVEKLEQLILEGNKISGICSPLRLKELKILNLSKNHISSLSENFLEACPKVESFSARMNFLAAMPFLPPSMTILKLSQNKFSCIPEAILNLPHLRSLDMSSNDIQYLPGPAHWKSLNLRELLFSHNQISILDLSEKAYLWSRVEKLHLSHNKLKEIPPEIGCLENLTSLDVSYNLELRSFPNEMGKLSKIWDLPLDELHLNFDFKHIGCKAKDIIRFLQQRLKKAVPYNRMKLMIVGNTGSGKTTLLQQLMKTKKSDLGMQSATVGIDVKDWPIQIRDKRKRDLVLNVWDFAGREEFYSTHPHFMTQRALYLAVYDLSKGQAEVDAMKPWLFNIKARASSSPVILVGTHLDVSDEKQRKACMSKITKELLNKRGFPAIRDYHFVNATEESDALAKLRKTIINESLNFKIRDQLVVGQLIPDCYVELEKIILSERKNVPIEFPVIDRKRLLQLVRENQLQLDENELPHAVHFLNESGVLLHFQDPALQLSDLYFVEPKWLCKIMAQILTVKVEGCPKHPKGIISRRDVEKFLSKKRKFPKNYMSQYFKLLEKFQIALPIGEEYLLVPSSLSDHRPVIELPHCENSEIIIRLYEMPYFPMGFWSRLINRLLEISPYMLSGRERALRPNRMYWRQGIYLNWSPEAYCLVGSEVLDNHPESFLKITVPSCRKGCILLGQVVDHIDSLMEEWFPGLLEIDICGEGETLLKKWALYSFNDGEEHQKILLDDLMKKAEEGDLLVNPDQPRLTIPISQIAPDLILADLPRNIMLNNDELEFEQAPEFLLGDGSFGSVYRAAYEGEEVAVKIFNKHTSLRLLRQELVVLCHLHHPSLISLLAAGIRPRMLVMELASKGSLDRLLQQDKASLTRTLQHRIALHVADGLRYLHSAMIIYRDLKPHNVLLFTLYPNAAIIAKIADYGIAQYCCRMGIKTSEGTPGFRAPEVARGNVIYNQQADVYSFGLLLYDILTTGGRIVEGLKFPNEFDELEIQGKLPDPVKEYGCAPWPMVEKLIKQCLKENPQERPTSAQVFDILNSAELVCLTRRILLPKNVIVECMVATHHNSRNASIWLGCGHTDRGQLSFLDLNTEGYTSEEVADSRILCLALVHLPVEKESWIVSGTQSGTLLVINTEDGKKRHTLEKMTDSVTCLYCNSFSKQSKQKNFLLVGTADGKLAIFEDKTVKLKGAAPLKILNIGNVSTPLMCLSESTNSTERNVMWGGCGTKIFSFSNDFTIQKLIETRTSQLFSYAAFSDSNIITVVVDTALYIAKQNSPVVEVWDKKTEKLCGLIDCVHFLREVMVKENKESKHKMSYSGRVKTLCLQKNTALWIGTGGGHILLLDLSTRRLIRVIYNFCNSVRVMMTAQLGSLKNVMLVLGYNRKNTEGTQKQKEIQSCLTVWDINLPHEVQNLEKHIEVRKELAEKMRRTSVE
# Run Description: Recombinant cellular LRRK2 AlphaScreen assay
# Type: cell-based
# Condition Notes: SH-SY5Y cells over-expressing recombinant full length LRRK2, 60 minutes, read-out: pIC50 in the recombinant cellular LRRK2 AlphaScreen assay (converted)
Endpoint Label: IC50 (nM)

Field: example entries. Status: answers known.
>>> df
                                   compound  unit_spec  reported_value
0  Cc1nc(N2CC(C)OC(CO)C2)cc(-n2ncc3cc(C)c(C4CCN(C5COC5)CC4)cc32)n1 (single isomer, unassigned) [Example B-2]         nM            79.4
1  Cc1nc(N2CCOC(CCO)C2)cc(-n2ncc3cc(C)c(C4CCN(C5COC5)CC4)cc32)n1 (single isomer, unassigned) [Example B-7]         nM            79.4
2  Cc1nc(N2CC(C)OC(CO)C2)cc(-n2ncc3cc(C)c(C4CCN(C5COC5)CC4)cc32)n1 (single isomer, unassigned) [Example B-1]         nM            50.1

(1) Cc1nc(N2CCO[C@@H](CO)C2)cc(-n2ncc3cc(C)c(C4CCN(C5(C)COC5)CC4)cc32)n1
(2) Cc1nc(N2CC(CO)OCC2C)cc(-n2ncc3cc(C)c(C4CCN(C5COC5)CC4)cc32)n1 (single isomer, unassigned)
Select one: 1 or 2 . Criterion: greater recorded IC50. Provide the label of your selected option as the answer. 1
